- Test system: HeLa Kyoto
- Test Summary: thermal stability score vs G1/S (z-score of summed log2 fold changes over temperatures); higher = more thermally stable than in G1/S
- Condition Description: cell cycle stage: early G1 (4.5 h after nocodazole release)
Readout Label: thermal stability score
# output: bare number, no unit

// sample MSVGFIGAGQLAYALARGFTAAGILSAHKIIASSPEMNLPTVSALRKMGVNLTRSNKETVKHSDVLFLAVKPHIIPFILDEIGADVQARHIVVSCAAGVTISSVEKKLMAFQPAPKVIRCMTNTPVVVQEGATVYATGTHALVEDGQLLEQLMSSVGFCTEVEEDLIDAVTGLSGSGPAYAFMALDALADGGVKMGLPRRLAIQLGAQALLGAAKMLLDSEQHPCQLKDNVCSPGGATIHALHFLESGGFRSLLINAVEASCIRTRELQSMADQEKISPAALKKTLLDRVKLESPTVSTLTPSSPGKLLTRSLALGGKKD [PYCR2] , its thermal stability score was 1.32

---

- Test system: HeLa Kyoto;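 note: synchronized HeLa Kyoto cells, proteins quantified by TMT10plex mass spectrometry, three biological replicates, mitosis taken 0.5 h after nocodazole release, G1/S directly after double thymidine block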
- Test Summary: thermal stability score vs G1/S (z-score of summed log2 fold changes over temperatures); higher = more thermally stable than in G1/S
- Condition Description: cell cycle stage: early G1 (4.5 h after nocodazole release)
Returns one of true or false; true when thermal stability score is >= -1.

Q) Hello, I need to know if MADLLGSILSSMEKPPSLGDQETRRKAREQAARLKKLQEQEKQQKVEFRKRMEKEVSDFIQDSGQIKKKFQPMNKIERSILHDVVEVAGLTSFSFGEDDDCRYVMIFKKEFAPSDEELDSYRRGEEWDPQKAEEKRKLKELAQRQEEEAAQQGPVVVSPASDYKDKYSHLIGKGAAKDAAHMLQANKTYGCVPVANKRDTRSIEEAMNEIRAKKRLRQSGEELPPTS [SPAG7] has measured thermal stability score not below -1. Thanks!
A) false

Q) Hello, I need to know if MQAERGARGGRGRRPGRGRPGGDRHSERPGAAAAVARGGGGGGGGDGGGRRGRGRGRGFRGARGGRGGGGAPRGSRREPGGWGAGASAPVEDDSDAETYGEENDEQGNYSKRKIVSNWDRYQDIEKEVNNESGESQRGTDFSVLLSSAGDSFSQFRFAEEKEWDSEASCPKQNSAFYVDSELLVRALQELPLCLRLNVAAELVQGTVPLEVPQVKPKRTDDGKGLGMQLKGPLGPGGRGPIFELKSVAAGCPVLLGKDNPSPGPSRDSQKPTSPLQSAGDHLEEELDLLLNLDAPIKEGDNILPDQTSQDLKSKEDGEVVQEEEVCAKPSVTEEKNMEPEQPSTSKNVTEEELEDWLDSMIS [AVEN] has measured thermal stability score not below -1. Thanks!
A) true

Q) Hello, I need to know if MSALLRLLRTGAPAAACLRLGTSAGTGSRRAMALYHTEERGQPCSQNYRLFFKNVTGHYISPFHDIPLKVNSKEENGIPMKKARNDEYENLFNMIVEIPRWTNAKMEIATKEPMNPIKQYVKDGKLRYVANIFPYKGYIWNYGTLPQTWEDPHEKDKSTNCFGDNDPIDVCEIGSKILSCGEVIHVKILGILALIDEGETDWKLIAINANDPEASKFHDIDDVKKFKPGYLEATLNWFRLYKVPDGKPENQFAFNGEFKNKAFALEVIKSTHQCWKALLMKKCNGGAINCTNVQISDSPFRCTQEEARSLVESVSSSPNKESNEEEQVWHFLGK [PPA2] has measured thermal stability score not below -1. Thanks!
A) false

Q) Hello, I need to know if MADTTPNGPQGAGAVQFMMTNKLDTAMWLSRLFTVYCSALFVLPLLGLHEAASFYQRALLANALTSALRLHQRLPHFQLSRAFLAQALLEDSCHYLLYSLIFVNSYPVTMSIFPVLLFSLLHAATYTKKVLDARGSNSLPLLRSVLDKLSANQQNILKFIACNEIFLMPATVFMLFSGQGSLLQPFIYYRFLTLRYSSRRNPYCRTLFNELRIVVEHIIMKPACPLFVRRLCLQSIAFISRLAPTVP [TMEM33] has measured thermal stability score not below -1. Thanks!
A) true

Q) Hello, I need to know if MRPLTEEETRVMFEKIAKYIGENLQLLVDRPDGTYCFRLHNDRVYYVSEKIMKLAANISGDKLVSLGTCFGKFTKTHKFRLHVTALDYLAPYAKYKVWIKPGAEQSFLYGNHVLKSGLGRITENTSQYQGVVVYSMADIPLGFGVAAKSTQDCRKVDPMAIVVFHQADIGEYVRHEETLT [NIP7] has measured thermal stability score not below -1. Thanks!
A) false
